We begin with a simple list: items and their reported EC50.
# System: RKO
# test.description: Cytotoxicity against human RKO cell line
# Assay type: functional, cell-based
recorded.endpoint: EC50

• CCCCC/C=C\C[C@@]1(O)C=C(Cl)C(=O)[C@@H]1C[C@H](OC(C)=O)[C@H](CCCC(=O)OC)OC(C)=O = 440 nM
• CCCCC/C=C\C[C@@]1(O)C=C(Cl)C(=O)/C1=C/[C@H](OC(C)=O)[C@H](CCCC(=O)OC)OC(C)=O [PUNAGLANDIN 4] = 310 nM

* * *

Reported EC50 by item:
# Test system: HCT cell line
# test.description: Cytotoxicity against wild type p53-l- gene in human colon tumor 116 (HCT 116) cell lines was determined
# Type: functional, cell-based
recorded.endpoint: EC50 (µM)

• CC/C=C/C/C=C\C[C@@]1(O)C=C(Cl)C(=O)/C1=C/[C@H](OC(C)=O)[C@H](CCCC(=O)OC)OC(C)=O = 0.37
• CCCCC/C=C\C[C@@]1(O)C=C(Cl)C(=O)[C@@H]1C[C@H](OC(C)=O)[C@H](CCCC(=O)OC)OC(C)=O = 0.36
• CCCCC/C=C\C[C@@]1(O)C=C(Cl)C(=O)[C@@H]1[C@@H](OC(C)=O)[C@H](OC(C)=O)[C@H](CCCC(=O)OC)OC(C)=O = 0.04
• CCCCC/C=C\C[C@@]1(O)C=C(Cl)C(=O)/C1=C/[C@H](OC(C)=O)[C@H](CCCC(=O)OC)OC(C)=O = 0.35
